test system: Paracentrotus lividus; test: Antiproliferative activity against sea urchin embryo assessed as cleavage arrest after 10 to 15 mins fertilization 45 to 60 mins before first mitotic cycle completion; format: functional
readout-type: EC (µM)
Give bare numbers, in µM.

Below are worked cases with known answers.
{"compound": "COc1ccc(C(=O)c2ccc3c(c2)OCCO3)cc1O", "readout-type": "EC", "unit-text": "µM", "experimental-value": 0.2}
{"compound": "COc1ccc(/C=C\\c2cc(OC)c3c(c2)OCO3)cc1O [Combretastatin A-2]", "readout-type": "EC", "unit-text": "µM", "experimental-value": 0.01}
{"compound": "COc1ccc(C(=O)c2ccc3c(c2)OCCO3)cc1", "readout-type": "EC", "unit-text": "µM", "experimental-value": 1}
{"compound": "COc1ccc(/C=C\\c2cc(OC)c(OC)c(OC)c2)cc1O [COMBRETASTATIN A4]", "readout-type": "EC", "unit-text": "µM", "experimental-value": 0.01}

// each listed compound needs a value for EC
1. COc1ccc(C(=O)c2cc(OC)c(OC)c(OC)c2)cc1O [PHENSTATIN]
2. COc1ccc(C(=O)c2cc(OC)c3c(c2)OCO3)cc1O
3. COc1ccc(C(=O)c2cc3c(c(OC)c2OC)OCO3)cc1O

1: 0.05; 2: 0.01; 3: 4
